tgt: PK
assayExplanation: enzyme inhibition
pKi: −log10 of the molar value. Positions of bridges follow the written chain, without caps; N, C: chain ends. No end group written: not given here.
measurementKind: pKi

Inquiry: For the binder shown here, GCTRQYPC (linker 2-8 via 1,3‑dibromoacetone) [peptide 035] , give the reported pKi.
Reply text: < 4.00
